The values you see were collected from paper PMC8151848.

test: Cytotoxicity assay (resazurin) in Hep G2 cells; type: cell-based, human; conditions: human, Hep G2 hepatocarcinoma cells (ATCC HB-8065); Hep G2, 1 µM, n = 9; read-out: Cytotoxicity (% cell growth inhibition) at 1 µM ± SD
assay readout: cytotoxicity at 24 h, 1 µM (%)
All answers are understood in %, so give the number only.

- CCc1c(-c2ccc[nH]2)[nH]c(/C=N/C2CCCCC2)c1C: 0.99

Which cytotoxicity at 24 h, 1 µM is reported for this molecule? CCc1c(-c2ccc[nH]2)[nH]c(/C=N/c2ccc(C(C)(C)C)cc2)c1C 0

Again, but for O=C(Cn1ccnc1[N+](=O)[O-])NCc1ccccc1 [Benznidazole, reference compound] 0

Again, but for COC1=CC(c2cc3ccccc3[nH]2)=N/C1=C\c1[nH]c(C)cc1C [Obatoclax, reference compound] 10.4
